A collection of compounds and their measured Stabilty
method summary: Metabolic stability in human liver microsomes assessed as parent compound remaining at 1 uM incubated for 30 mins
Type: ADME, Microsome
condition info: microsomes, 0.5 h, 1 µM
measured quantity: Stabilty (%)

compound=COc1nc(-c2csc(Nc3cc(C(C)(C)C)nn3C(C)C)n2)ccc1-n1cnc(C)c1 measured_quantity=Stabilty unit_label=% endpoint_value=21
compound=COc1nc(-c2csc(Nc3c4c(nn3C(C)(C)C)CCC4)n2)ccc1-n1cnc(C)c1 measured_quantity=Stabilty unit_label=% endpoint_value=21
compound=COc1nc(-c2csc(Nc3cc(C(C)(C)C)nn3CC(F)(F)F)n2)ccc1-n1cnc(C)c1 measured_quantity=Stabilty unit_label=% endpoint_value=47
compound="CCn1nc2c(c1Nc1nc(-c3ccc(-n4cnc(C)c4)c(OC)n3)cs1)C(C)CC2(C)C (racemic)" measured_quantity=Stabilty unit_label=% endpoint_value=12
compound=CCn1nc2c(c1Nc1nc(-c3ccc(-n4cnc(C)c4)c(OC)n3)cs1)CCCCC2 measured_quantity=Stabilty unit_label=% endpoint_value=0.1
compound=CCn1nc(C(C)(C)C)cc1Nc1nc(-c2ccc(-n3cnc(C)c3)nc2)cs1 measured_quantity=Stabilty unit_label=% endpoint_value=43
compound=COc1nc(-c2csc(Nc3c4c(nn3C3CCC3)CCC4)n2)ccc1-n1cnc(C)c1 measured_quantity=Stabilty unit_label=% endpoint_value=3
compound=COc1nc(-c2csc(Nc3c4c(nn3CC(F)(F)F)CCC4)n2)ccc1-n1cnc(C)c1 measured_quantity=Stabilty unit_label=% endpoint_value=66
compound=CCn1nc(C(C)(C)C)cc1Nc1nc(-c2ccc(-n3cnc(C)c3)c(OC)n2)cs1 measured_quantity=Stabilty unit_label=% endpoint_value=38
compound=COc1nc(-c2csc(Nc3c4c(nn3CCO)CCCC4)n2)ccc1-n1cnc(C)c1 measured_quantity=Stabilty unit_label=% endpoint_value=40

----------
target under test: Gamma-secretase
method summary: Modulation of gamma secretase in human SH-SY5Y cells overexpressing wild type APP751 assessed as inhibition of amyloid beta (35 to 42 residues) formation incubated for overnight by ELISA
Format: cell-based
pIC50: −log10 of the molar value.
A collection of molecules and their measured pIC50
measured quantity: pIC50

molecule=CCn1nccc1Nc1nc(-c2ccc(-n3cnc(C)c3)c(OC)n2)cs1 result_operator=< endpoint_value=6.00
molecule=CCn1nc2c(c1Nc1nc(-c3ccc(-n4cnc(C)c4)nc3)cs1)CCCC2 result_operator=< endpoint_value=6.00
molecule=CCn1nc2c(c1Nc1nc(-c3ccc(-n4cnc(C)c4)c(OC)n3)cs1)CCCC2 result_operator== endpoint_value=7.22
molecule=Cc1cn(-c2ccc(-c3csc(Nc4c5c(nn4C)CCCC5)n3)cn2)cn1 result_operator=< endpoint_value=6.00
molecule="COc1nc(-c2csc(Nc3c4c(nn3C3CCOC3)CCCC4)n2)ccc1-n1cnc(C)c1 (racemic)" result_operator== endpoint_value=6.99
molecule=COc1nc(-c2csc(Nc3c4c(nn3CCO)CCC4)n2)ccc1-n1cnc(C)c1 result_operator== endpoint_value=7.12
molecule="CCn1nc2c(c1Nc1nc(-c3ccc(-n4cnc(C)c4)c(OC)n3)cs1)C(C)CC2(C)C (racemic)" result_operator== endpoint_value=7.14
molecule=COc1nc(-c2csc(Nc3c4c(nn3C)CCCC4)n2)ccc1-n1cnc(C)c1 result_operator== endpoint_value=6.98
